- System: ATP;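 note: ATP exposure 15 min at 22 °C before imaging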
- procedureSummary: switch fluorescence ratio, 500 uM ATP over buffer (Cy3 cluster intensity, sum of 5 cycles each) (fold (ratio)); higher = stronger signal-on switching upon ATP binding; sequences stand for … in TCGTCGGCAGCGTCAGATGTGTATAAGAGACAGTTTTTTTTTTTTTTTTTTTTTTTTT…TC
- setupConditions: aptamer strand: ATP DNA aptamer (quencher-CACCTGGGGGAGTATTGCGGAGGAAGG + anchor), 100 nM annealed; ATP concentration: 500 uM
resultType: switch fluorescence ratio
# output: bare number, no unit

Study these solved cases before continuing.
TTAGGAGGGT: 0.965
TTAAGGGGGA: 1.01
GATGTAGGGA: 1.02

Task: Report switch fluorescence ratio, nothing else, for this sequence: AGGTCTTATT
Result: 1.08

Task: Supply recorded switch fluorescence ratio for ATTTGTATCC here.
Result: 0.994

Task: Answer with the recorded switch fluorescence ratio for the sequence listed here: TGATACCATG
Result: 0.997

====

- Tested on: ATP;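 note: ATP exposure 15 min at 22 °C before imaging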
- procedureSummary: switch fluorescence ratio, 500 uM ATP over buffer (Cy3 cluster intensity, sum of 5 cycles each) (fold (ratio)); higher = stronger signal-on switching upon ATP binding; sequences stand for … in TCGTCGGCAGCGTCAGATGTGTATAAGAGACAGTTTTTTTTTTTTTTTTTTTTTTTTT…TC
- setupConditions: aptamer strand: ATP DNA aptamer (quencher-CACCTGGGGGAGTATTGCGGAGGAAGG + anchor), 100 nM annealed; ATP concentration: 500 uM
resultType: switch fluorescence ratio
// print number alone

GGGTTCATTC: 0.998
AGCAGAAAAT: 1.01
CTAATTGTAG: 0.988
ATATGAGTTT: 1.01
CGTTATGCCT: 0.975
TGAGGTTGTC: 0.981
TTTGAGTTGT: 0.962
ACATCATAGC: 1.05

# evaluate next
Task: Please indicate switch fluorescence ratio recorded for AAATCTGCTG
Result: 1

====

- Tested on: ATP;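 note: ATP exposure 15 min at 22 °C before imaging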
- procedureSummary: switch fluorescence ratio, 500 uM ATP over buffer (Cy3 cluster intensity, sum of 5 cycles each) (fold (ratio)); higher = stronger signal-on switching upon ATP binding; sequences stand for … in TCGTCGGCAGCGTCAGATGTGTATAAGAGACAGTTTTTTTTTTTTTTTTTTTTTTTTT…TC
- setupConditions: aptamer strand: ATP DNA aptamer (quencher-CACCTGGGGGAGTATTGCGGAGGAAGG + anchor), 100 nM annealed; ATP concentration: 500 uM
resultType: switch fluorescence ratio
Kindly provide the number alone.

Guide cases for switch fluorescence ratio, answers given:
TATAATGGTG: 0.976
GATTGAGCGG: 1.01
TTTGTATATT: 1.01
GTGGGGCGCG: 1.02
ACTTGGCGTC: 1.02

Task: Tell me measured switch fluorescence ratio for TAACAGAGTG please.
Result: 1

Task: Query switch fluorescence ratio for ATGGATGCCT
Result: 1.01

Task: Please supply the value of reported switch fluorescence ratio for the item TTTAGCGGGG
Result: 1.01

Task: Could you please provide reported switch fluorescence ratio for GTGTTATATA ? Thanks!
Result: 0.986

Task: Report measured switch fluorescence ratio; entry is ATGGCGAGGT
Result: 1.01

Task: Return value of switch fluorescence ratio for input GAACACTTCT , no commentary.
Result: 1.05

Task: Using the record for TTGATTTGTG , state its measured switch fluorescence ratio.
Result: 0.997

Task: Using known records, supply switch fluorescence ratio for TATACTGGGG
Result: 1.03

Task: Look up and state reported switch fluorescence ratio for TCAGTTTTTT
Result: 0.999

====

- Test system: ATP;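 note: ATP exposure 15 min at 22 °C before imaging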
- procedureSummary: switch fluorescence ratio, 500 uM ATP over buffer (Cy3 cluster intensity, sum of 5 cycles each) (fold (ratio)); higher = stronger signal-on switching upon ATP binding; sequences stand for … in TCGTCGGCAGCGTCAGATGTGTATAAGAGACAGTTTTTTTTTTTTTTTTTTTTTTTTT…TC
- setupConditions: aptamer strand: ATP DNA aptamer (quencher-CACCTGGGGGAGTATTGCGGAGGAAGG + anchor), 100 nM annealed; ATP concentration: 500 uM
Binary call on switch fluorescence ratio: true from 1 upward, false beneath that.

GACGCTTCG: false
CGGCTGTTTT: true
CCGACATGGT: true

Task: Can ATCAATCCTT be said to have switch fluorescence ratio at or above 1?
Result: true

Task: // inclusive: switch fluorescence ratio at least 1? input: GAACTGGGGC
Result: false

Task: Hi team, for GACTCGATCC , is the recorded switch fluorescence ratio at or above 1?
Result: true

Task: Does GACGTTATGG have a reported switch fluorescence ratio of at least 1?
Result: true

Task: switch fluorescence ratio >= 1 for GATAGATCAC ?
Result: true

Task: Quick check: does CCAGTAATTT have switch fluorescence ratio greater than or equal to 1?
Result: true

Task: Exam item: decide whether the reported switch fluorescence ratio for TAACAATTAA is at least 1.
Result: true

Task: Given the entry TTGTGTTTAC , answer whether its switch fluorescence ratio meets or surpasses 1.
Result: true

====

- System: ATP;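 note: ATP exposure 15 min at 22 °C before imaging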
- procedureSummary: switch fluorescence ratio, 500 uM ATP over buffer (Cy3 cluster intensity, sum of 5 cycles each) (fold (ratio)); higher = stronger signal-on switching upon ATP binding; sequences stand for … in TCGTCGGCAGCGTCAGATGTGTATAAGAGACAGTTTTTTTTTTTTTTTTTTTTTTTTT…TC
- setupConditions: aptamer strand: ATP DNA aptamer (quencher-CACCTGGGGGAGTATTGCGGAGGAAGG + anchor), 100 nM annealed; ATP concentration: 500 uM
Measured switch fluorescence ratio of individual entries
Answer with a number only.

Examples with answers:
TTCGTTGATG: 0.985
GCTAGTATAA: 0.987
ATAATAGGGT: 0.972
TTGATAATAG: 1
CGTTAGTAAG: 0.982

Task: // fetch switch fluorescence ratio; item: TAACGGGTTG ; system: ATP;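 note: ATP exposure 15 min at 22 °C before imaging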
Result: 1.03

====

Property: switch fluorescence ratio; scope: individual sequences
- Tested on: ATP;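 note: ATP exposure 15 min at 22 °C before imaging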
- procedureSummary: switch fluorescence ratio, 500 uM ATP over buffer (Cy3 cluster intensity, sum of 5 cycles each) (fold (ratio)); higher = stronger signal-on switching upon ATP binding; sequences stand for … in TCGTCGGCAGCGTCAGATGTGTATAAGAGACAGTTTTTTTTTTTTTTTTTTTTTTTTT…TC
- setupConditions: aptamer strand: ATP DNA aptamer (quencher-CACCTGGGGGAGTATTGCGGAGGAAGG + anchor), 100 nM annealed; ATP concentration: 500 uM
Lab note: record just the number, no unit beside it.

TATGGAGGGC: 1.06
CTGGGGATTA: 0.972
TCAGTCAGTT: 0.991
CGGTGTTAGC: 0.976
TCTGTATACA: 0.989

Task: // output switch fluorescence ratio; input TGAAACGCTG ; system ATP;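 note: ATP exposure 15 min at 22 °C before imaging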
Result: 1.06

====

- Tested on: ATP;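 note: ATP exposure 15 min at 22 °C before imaging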
- procedureSummary: switch fluorescence ratio, 500 uM ATP over buffer (Cy3 cluster intensity, sum of 5 cycles each) (fold (ratio)); higher = stronger signal-on switching upon ATP binding; sequences stand for … in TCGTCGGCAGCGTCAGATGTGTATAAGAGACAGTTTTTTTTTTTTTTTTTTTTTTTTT…TC
- setupConditions: aptamer strand: ATP DNA aptamer (quencher-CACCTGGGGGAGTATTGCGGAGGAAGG + anchor), 100 nM annealed; ATP concentration: 500 uM
Entries and their switch fluorescence ratio values follow.
API doc: respond with a numeric literal and nothing else, no unit.

CATGCATATT: 1.01

Continue with the sequence presented below.
Task: Identify the reported switch fluorescence ratio for the following entry. AGGTCTAGC
Result: 0.995

====

- Tested on: ATP;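 note: ATP exposure 15 min at 22 °C before imaging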
- procedureSummary: switch fluorescence ratio, 500 uM ATP over buffer (Cy3 cluster intensity, sum of 5 cycles each) (fold (ratio)); higher = stronger signal-on switching upon ATP binding; sequences stand for … in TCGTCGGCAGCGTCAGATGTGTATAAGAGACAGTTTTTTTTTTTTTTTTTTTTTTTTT…TC
- setupConditions: aptamer strand: ATP DNA aptamer (quencher-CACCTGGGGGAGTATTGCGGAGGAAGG + anchor), 100 nM annealed; ATP concentration: 500 uM
The label depends only on switch fluorescence ratio: rule met if it is at least 1, rule not met if it is smaller.

Please review the following examples before continuing.
CGAACGGGGA: rule met
GATGTTTGGC: rule met
CGGGTGGAGC: rule not met

Next up:
Task: Please tell me: is the sequence ACGCGACATT at or over 1 in terms of switch fluorescence ratio?
Result: rule met

====

- System: ATP;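 note: ATP exposure 15 min at 22 °C before imaging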
- procedureSummary: switch fluorescence ratio, 500 uM ATP over buffer (Cy3 cluster intensity, sum of 5 cycles each) (fold (ratio)); higher = stronger signal-on switching upon ATP binding; sequences stand for … in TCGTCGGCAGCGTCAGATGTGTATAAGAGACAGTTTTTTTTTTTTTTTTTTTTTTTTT…TC
- setupConditions: aptamer strand: ATP DNA aptamer (quencher-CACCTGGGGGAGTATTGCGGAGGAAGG + anchor), 100 nM annealed; ATP concentration: 500 uM
resultType: switch fluorescence ratio
Lab note: jot the number down without any unit.

GCACTGGTAA: 1.02
GAGTGCCGTG: 1.01
CTAATGGCTT: 0.977
GCTAAAGAAA: 0.974
GAGTTTTATG: 0.963

Task: Read off the recorded switch fluorescence ratio for AGTTGGGTCG
Result: 1

Task: Indicate the recorded switch fluorescence ratio value for this sequence: GGATGAGTGT
Result: 0.982

Task: Given the sequence GCGAGGGGGG , write its reported switch fluorescence ratio.
Result: 1.02

Task: State its switch fluorescence ratio: TTTTGGGTCC
Result: 1.06

Task: Given the sequence GTGTTGGACC , write its reported switch fluorescence ratio.
Result: 0.978

Task: Indicate its recorded switch fluorescence ratio; the sequence in question is TCGTATTGAG
Result: 0.948

Task: For the sequence GGATAAAAAT , give its reported switch fluorescence ratio.
Result: 1.02

Task: Consider the sequence TTAGCAAAAA . State its measured switch fluorescence ratio.
Result: 1.1

Task: For the sequence GTGTGAGGTT , report switch fluorescence ratio.
Result: 0.989

Task: Supply switch fluorescence ratio value. Item: CAAGGTGGAT
Result: 1.05

Task: Please give the documented switch fluorescence ratio of GAGTGTCGGC
Result: 0.996

Task: Please list switch fluorescence ratio recorded for the sequence AGACGGGAAC
Result: 1

Task: Output switch fluorescence ratio of TTTAGCCGGG
Result: 0.985

Task: Provide only the value of recorded switch fluorescence ratio for CTTTTTTGTT
Result: 1

Task: Fill in reported switch fluorescence ratio for this entry: GGCTCTTCGG
Result: 0.989
